All values here come from patent US10405547B2.

Recorded measurements of Plant response rating, Barnyardgrass, one per entry
# Test system: barnyardgrass (Echinochloa crus-galli)
# testProtocol: Test A preemergence, barnyardgrass
# Assay type: in vivo
# conditionDescription: 125 g ai/ha, 0 to 100 scale (0 no effect, 100 complete control)

molecule	Plant response rating, Barnyardgrass
O=C1NCC(c2cccc(OCc3ccccc3)c2)C1C(=O)Nc1ccccc1F (stereo not shown) [Compound 63]	0
O=C1NCC(c2cccc(COc3ccccc3)c2)C1C(=O)Nc1ccccc1F (stereo not shown) [Compound 19]	30
O=C1NCC(c2cccc(OCc3ccccc3)c2)C1C(=O)Nc1ccccc1Cl (stereo not shown) [Compound 67]	0
CN1CC(c2cccc(Oc3ccc(F)cc3)c2)C(C(=O)Nc2cccc(F)c2F)C1=O (single isomer, unassigned) [Compound 46]	70
